Each recorded value in this set is attributed to the supplement of paper PMC8617591.

- System: Mycobacterium tuberculosis Erdman (autoluminescent)
- assayName: AUC25, normalised area under dose response up to IC25 (three-drug combination) (fraction (0-1)); higher = more potent at low dose
- testSettings: in vitro model: valerate; time point: terminal (~4-5 doublings, model-specific)
measurementName: AUC25
Number, no unit, nothing else.

COc1nc2ccc(Br)cc2cc1[C@@H](c1ccccc1)[C@@](O)(CCN(C)C)c1cccc2ccccc12 [bedaquiline] + NC(=O)c1cnccn1 [pyrazinamide] + CO[C@H]1/C=C/O[C@@]2(C)Oc3c(C)c(O)c4c(O)c(c(/C=N/N5CCN(C6CCCC6)CC5)c(O)c4c3C2=O)NC(=O)/C(C)=C\C=C\[C@H](C)[C@H](O)[C@@H](C)[C@@H](O)[C@@H](C)[C@H](OC(C)=O)[C@@H]1C [rifapentine]	0.0334

Query :: Look up AUC25 for this molecule: CC(=O)NC[C@H]1CN(c2ccc(N3CCOCC3)c(F)c2)C(=O)O1 [linezolid] + COc1c(N2C[C@@H]3CCCN[C@@H]3C2)c(F)cc2c(=O)c(C(=O)O)cn(C3CC3)c12 [moxifloxacin] + CO[C@H]1/C=C/O[C@@]2(C)Oc3c(C)c(O)c4c(O)c(c(/C=N/N5CCN(C6CCCC6)CC5)c(O)c4c3C2=O)NC(=O)/C(C)=C\C=C\[C@H](C)[C@H](O)[C@@H](C)[C@@H](O)[C@@H](C)[C@H](OC(C)=O)[C@@H]1C [rifapentine]
Result :: 0.0452

Query :: Look up AUC25 for this molecule: COc1c(N2C[C@@H]3CCCN[C@@H]3C2)c(F)cc2c(=O)c(C(=O)O)cn(C3CC3)c12 [moxifloxacin] + O=[N+]([O-])c1cn2c(n1)OC[C@@H](OCc1ccc(OC(F)(F)F)cc1)C2 [pretomanid] + NC(=O)c1cnccn1 [pyrazinamide]
Result :: 0.0676
